Assignment: determine reported recombinant UMI read abundance (log10) for the given sequences.
Assay: recombinant UMI read abundance after kanamycin selection (control-corrected) (log10(CPM+1)); higher = more efficient recombination; extreme values may be limits of the assay; sequences stand for … in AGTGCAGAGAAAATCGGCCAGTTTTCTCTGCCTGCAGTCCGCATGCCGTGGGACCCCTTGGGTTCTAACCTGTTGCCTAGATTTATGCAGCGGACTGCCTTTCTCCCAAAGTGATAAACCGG…AGGTTGGTTTCACT; site = the 11-nt donor;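 further: IS621 bridge recombinase in Escherichia coli cells against a fixed T5 target plasmid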
No unit in the answer, please; the number alone is enough.

If you can, please state the reported recombinant UMI read abundance (log10) value of TCTGGACCATGGACCGGTTTTCCCGGTAATCCGTATTTGAC (site TCTGGACCTGT) .
0

Name the reported recombinant UMI read abundance (log10) value associated with the sequence TTCTTGACATGGACCGGTTTTCCCGGTAATCCGTATTTGCT (site TTCTTGACTAG)
0.68

What measured recombinant UMI read abundance (log10) goes with TTCTAGGCATGGACCGGTTTTCCCGGTAATCCGTATTTGGT (site TTCTAGGCTAC) ?
0.0102

Item under review: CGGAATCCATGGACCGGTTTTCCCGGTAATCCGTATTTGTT (site CGGAAGACTAA) . Reported recombinant UMI read abundance (log10)?
0

What measured recombinant UMI read abundance (log10) goes with AACAAGACATGGACCGGTTTTCCCGGTAATCCGTATTTGAC (site AACAAGACTGT) ?
2.21

Field request: recombinant UMI read abundance (log10) | item: TGTGATTCATGGACCGGTTTTCCCGGTAATCCGTATTTGTT (site TGTGATTCTAA)
0

Fill in the blank: the reported recombinant UMI read abundance (log10) of GTTTTTCCATGGACCGGTTTTCCCGGTAATCCGTATTTGGT (site GTTTTTCCTAC) is ____.
0

Quick one: recombinant UMI read abundance (log10) for CCGGTTACATGGACCGGTTTTCCCGGTAATCCGTATTTGCT (site CCGGTTACTAG) ?
0

For the sequence shown here, GTTTAGGCATGGACCGGTTTTCCCGGTAATCCGTATTTGGC (site GTTTAGGCTGC) , give the reported recombinant UMI read abundance (log10).
2.08

What value of measured recombinant UMI read abundance (log10) is listed for TTCAATTCATGGACCGGTTTTCCCGGTAATCCGTATTTGCC (site TACAATTCTGG) ?
0

Bench note: what recombinant UMI read abundance (log10) did GTTGTGCCATGGACCGGTTTTCCCGGTAATCCGTATTTGGT (site GTTGTGCCTAC) show?
0.0934

Quick check: recombinant UMI read abundance (log10) of CAATCGACATGGACCGGTTTTCCCGGTAATCCGTATTTGGG (site CAATCGACTCC) ?
0.0993

// returns reported recombinant UMI read abundance (log10) for input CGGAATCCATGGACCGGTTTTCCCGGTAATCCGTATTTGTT (site CGGTGTCCTAA)
0.0136

What value of recombinant UMI read abundance (log10) has been recorded for this entry: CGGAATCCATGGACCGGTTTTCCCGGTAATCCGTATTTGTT (site CGGACTGCTAA)
0.0124

Bench note: what recombinant UMI read abundance (log10) did CTTCACTCATGGACCGGTTTTCCCGGTAATCCGTATTTGTA (site CTTCACTCTTA) show?
1.73

Return reported recombinant UMI read abundance (log10); argument: CGGTTGGCATGGACCGGTTTTCCCGGTAATCCGTATTTGCT (site CGTTTGGCTAG)
0

Given the entry AAGGGTCCATGGACCGGTTTTCCCGGTAATCCGTATTTGAG (site AAGGGTCCTCT) , report its measured recombinant UMI read abundance (log10).
0.405

Requested read-out: recombinant UMI read abundance (log10). Entry: AATGTAACATGGACCGGTTTTCCCGGTAATCCGTATTTGTT (site AATGTAACTAA)
0.321

Attribution: the supplement of paper PMC11208160
